molecular target: Cannabinoid receptor 2 (Homo sapiens, UniProt P34972); assay: Agonist activity at human CB2 receptor expressed in CHO cells assessed as forskolin-stimulated cAMP formation preincubated with compound for 10 mins followed by forskolin induction and measured after 30 mins by HTRF analysis; format: functional, cell-based
Sequence (P34972 whole entry): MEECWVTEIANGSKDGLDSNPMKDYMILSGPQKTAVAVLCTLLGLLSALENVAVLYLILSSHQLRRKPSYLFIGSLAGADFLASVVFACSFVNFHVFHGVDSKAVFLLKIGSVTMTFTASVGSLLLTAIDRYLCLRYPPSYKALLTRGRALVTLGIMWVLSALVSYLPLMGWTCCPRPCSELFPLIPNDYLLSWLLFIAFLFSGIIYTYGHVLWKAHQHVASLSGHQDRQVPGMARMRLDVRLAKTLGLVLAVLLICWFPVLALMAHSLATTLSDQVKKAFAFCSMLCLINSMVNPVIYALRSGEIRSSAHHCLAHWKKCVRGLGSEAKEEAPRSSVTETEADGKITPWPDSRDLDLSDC
pEC50: −log10 of the molar value.
The entries below come with measured pEC50 values attached.

Q. Item C=C(C)[C@@H]1CCC(C)=C[C@H]1c1c(O)cc(CCCCC)c(C(N)=O)c1O has what recorded pEC50?
A. < 8.00

Q. Then C=C(C)[C@@H]1CCC(C)=C[C@H]1c1c(O)cc(-c2ccccc2)cc1O ?
A. < 8.00

Q. Then C=Cc1cc(O)c([C@@H]2C=C(C)CC[C@H]2C(=C)C)c(O)c1 ?
A. < 8.00

Q. Then C=C(C)[C@@H]1CCC(C)=C[C@H]1c1c(O)cc(C(C)C)cc1O ?
A. < 8.00

Q. Then C=C(C)[C@@H]1CCC(C)=C[C@H]1c1c(O)cc(C2CC2)cc1O ?
A. < 8.00

Q. Then C=C(C)[C@@H]1CCC(C)=C[C@H]1c1c(O)cc(C)cc1O ?
A. < 5.00

Q. Then C=C(C)[C@@H]1CCC(C)=C[C@H]1c1c(O)cc(C(C)(C)CCCC)c(C(=O)NC)c1O ?
A. < 5.00

Q. Then C=C(C)[C@@H]1CCC(C)=C[C@H]1c1c(O)cc(C#CC)cc1O ?
A. < 8.00

Q. Then C=C(C)[C@@H]1CCC(C)=C[C@H]1c1c(O)cc(CCCCC)c(C(=O)NCCN(C)C)c1O ?
A. < 8.00

Q. Then C=C(C)[C@@H]1CCC(C)=C[C@H]1c1c(O)cc(-c2ccccn2)cc1O ?
A. < 8.00

---

The entries below come with measured Cmax values attached.
assay: Cmax in ICR mouse at 25 mg/kg, po measured upto 8 hrs by LC-MS/MS analysis; format: ADME, organism-based; conditions: in vivo
Reply numerically in ng/mL, unit not repeated.

Q. Item C=C(C)[C@@H]1CCC(C)=C[C@H]1c1c(O)cc(C2(CCCC)CC2)c(C(=O)N(C)C)c1O has what recorded Cmax?
A. 62.7

Q. Then C=C(C)[C@@H]1CCC(C)=C[C@H]1c1ccc(C2CC2)c(C(N)=O)c1O ?
A. 90.4

Q. Then C=C(C)[C@@H]1CCC(C)=C[C@H]1c1c(O)cc(C2CCCCC2)cc1O ?
A. 216

---

test: Half life in ICR mouse at 25 mg/kg, po measured upto 8 hrs by LC-MS/MS analysis; assay type: ADME, organism-based; conditions: in vivo
Quantity Measured: half-life (h)
Reply numerically in h, unit not repeated.

Sample records with half-life:
Compound: C=C(C)[C@@H]1CCC(C)=C[C@H]1c1c(O)cc(CCCCC)cc1O [CANNABIDIOL]
half-life, h: 4.3
//
Compound: C=C(C)[C@@H]1CCC(C)=C[C@H]1c1c(O)cc(C2(CCCC)CC2)c(C(N)=O)c1O
half-life, h: 2.5

Q. Item C=C(C)[C@@H]1CCC(C)=C[C@H]1c1c(O)cc(C2CCCCC2)cc1O has what recorded half-life?
A. 2.7

Q. Then C=C(C)[C@@H]1CCC(C)=C[C@H]1c1ccc(C2CC2)c(C(N)=O)c1O ?
A. 2.9

Q. Then C=C(C)[C@@H]1CCC(C)=C[C@H]1c1c(O)cc(C2(CCCC)CC2)c(C(=O)N(C)C)c1O ?
A. 1.7

Q. Then C=C(C)[C@@H]1CCC(C)=C[C@H]1c1c(O)cc(CCCCC)c(C(=O)N(C)C)c1O ?
A. 1.7

Q. Then C=C(C)[C@@H]1CCC(C)=C[C@H]1c1c(O)cc(C2CCCC2)cc1O ?
A. 1.8

---

biological target: UniProt P21554; experiment: Antagonist activity at human CB1 receptor expressed in CHO cells assessed as inhibition of forskolin-stimulated cAMP formation preincubated with compound for 10 mins followed by forskolin induction and measured after 30 mins by HTRF analysis
Sequence (P21554 whole entry): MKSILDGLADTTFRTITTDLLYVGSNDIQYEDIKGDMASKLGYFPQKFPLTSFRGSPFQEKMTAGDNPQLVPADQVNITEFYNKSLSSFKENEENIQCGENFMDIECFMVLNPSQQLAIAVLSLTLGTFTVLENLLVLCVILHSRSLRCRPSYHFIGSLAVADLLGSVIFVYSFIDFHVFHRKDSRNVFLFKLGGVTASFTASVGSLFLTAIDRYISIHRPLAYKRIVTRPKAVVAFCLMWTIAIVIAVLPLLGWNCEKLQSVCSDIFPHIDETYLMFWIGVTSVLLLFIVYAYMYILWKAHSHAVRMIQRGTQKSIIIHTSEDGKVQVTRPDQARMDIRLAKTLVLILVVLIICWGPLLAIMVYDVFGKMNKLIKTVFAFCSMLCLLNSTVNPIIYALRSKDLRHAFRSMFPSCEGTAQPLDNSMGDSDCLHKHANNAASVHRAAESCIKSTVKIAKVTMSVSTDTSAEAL
Quantity Measured: IC50 (µM)
Reply numerically in µM, unit not repeated.

Compound Smiles: C=C(C)[C@@H]1CCC(C)=C[C@H]1c1c(O)cc(C)cc1O
Target Desc: UniProt P21554
IC50 [µM]: 6.3

Q. Item C=C(C)[C@@H]1CCC(C)=C[C@H]1c1ccc(C2CC2)c(C(N)=O)c1O has what recorded IC50?
A. 6.5

Q. Then C=C(C)[C@@H]1CCC(C)=C[C@H]1c1c(O)cc(-c2ccccn2)cc1O ?
A. 6.3

Q. Then C=C(C)[C@@H]1CCC(C)=C[C@H]1c1c(O)cc(CCCCC)c(C(=O)N(C)C)c1O ?
A. 6.9

Q. Then C=C(C)[C@@H]1CCC(C)=C[C@H]1c1c(O)cc(CCCCC)c(C(=O)NC2CC2)c1O ?
A. 2.3

---

experiment: Cmax in ICR mouse at 25 mg/kg, po measured upto 8 hrs by LC-MS/MS analysis; format: ADME, organism-based; conditions: in vivo
The entries below come with measured Cmax values attached.
Reply numerically in ng/mL, unit not repeated.

Compound Smiles: C=C(C)[C@@H]1CCC(C)=C[C@H]1c1c(O)cc(CCCCC)cc1O
Quantity Measured: Cmax
Result: 145

Compound Smiles: C=C(C)[C@@H]1CCC(C)=C[C@H]1c1c(O)cc(C2(CCCC)CC2)c(C(N)=O)c1O
Quantity Measured: Cmax
Result: 211

Q. Item C=C(C)[C@@H]1CCC(C)=C[C@H]1c1c(O)cc(C2CCCC2)cc1O has what recorded Cmax?
A. 514

Q. Then C=C(C)[C@@H]1CCC(C)=C[C@H]1c1c(O)cc(CCCCC)c(C(=O)N(C)C)c1O ?
A. 22.2
